PROCEDURE_DETAILS: Solubility of powder compositions of aprepitant at 25° C. in water (HPLC method)
Assay type: physicochemical
RUN_PARAMETERS: thermodynamic from solid
READOUT_LABEL: solubility (µg/mL)
Report the value in µg/mL with no unit label.

The compound listed as C[C@@H](O[C@H]1OCCN(Cc2n[nH]c(=O)[nH]2)[C@H]1c1ccc(F)cc1)c1cc(C(F)(F)F)cc(C(F)(F)F)c1 [A, Aprepitant] has a reported solubility of 0.5

Measured values drawn from patent US20090209541A1 for this set.
